Values were extracted from patent US11427548B2.

- systemUnderTest: Androgen Receptor (Homo sapiens, UniProt P10275)
- Construct: endogenous in cells; host or cells: VCaP cells
- Sequence (P10275 whole entry): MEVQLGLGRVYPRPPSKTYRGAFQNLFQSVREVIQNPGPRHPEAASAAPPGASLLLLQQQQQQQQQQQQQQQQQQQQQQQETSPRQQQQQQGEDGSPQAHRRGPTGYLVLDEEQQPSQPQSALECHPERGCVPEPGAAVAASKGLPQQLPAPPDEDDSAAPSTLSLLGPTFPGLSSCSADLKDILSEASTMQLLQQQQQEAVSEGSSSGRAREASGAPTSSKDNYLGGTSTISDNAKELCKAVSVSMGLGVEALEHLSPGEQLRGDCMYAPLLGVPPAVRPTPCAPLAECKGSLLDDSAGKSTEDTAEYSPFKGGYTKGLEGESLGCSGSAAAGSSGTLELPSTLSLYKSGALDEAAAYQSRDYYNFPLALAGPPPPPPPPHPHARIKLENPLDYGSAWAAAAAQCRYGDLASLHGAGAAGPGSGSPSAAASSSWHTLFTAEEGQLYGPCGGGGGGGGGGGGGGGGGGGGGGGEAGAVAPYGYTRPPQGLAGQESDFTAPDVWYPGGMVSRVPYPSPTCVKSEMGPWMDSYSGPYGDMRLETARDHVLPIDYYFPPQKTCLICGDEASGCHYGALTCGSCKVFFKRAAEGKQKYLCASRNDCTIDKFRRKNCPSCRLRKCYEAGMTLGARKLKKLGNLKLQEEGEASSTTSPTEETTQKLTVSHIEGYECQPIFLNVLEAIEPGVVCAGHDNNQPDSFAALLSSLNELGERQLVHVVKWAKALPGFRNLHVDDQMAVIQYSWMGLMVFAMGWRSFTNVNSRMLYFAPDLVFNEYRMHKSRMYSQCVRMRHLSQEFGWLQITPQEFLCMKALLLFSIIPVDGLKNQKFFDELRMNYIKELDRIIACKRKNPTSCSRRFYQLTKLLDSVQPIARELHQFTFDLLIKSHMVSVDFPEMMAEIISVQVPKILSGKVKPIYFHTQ
- testName: Androgen Receptor ELISA assay (PathScan AR ELISA) in VCaP cells: AR degradation, Dmax and DC50
- Type: cell-based
- testConditions: VCaP cells; Table 36; read-out: VCaP DC50

[
  {
    "compound": "Cc1ncsc1-c1ccc([C@@H](NC(=O)[C@@H]2C[C@@H](O)CN2C(=O)C(NC(=O)COCCN2CCN(c3ccc(C(=O)N[C@H]4C(C)(C)[C@H](Oc5ccc(C#N)c(C(F)(F)F)c5)C4(C)C)cn3)CC2)C(C)(C)C)C2COC2)cc1 (stereo partly shown)",
    "DC50": "< 0.05 µM"
  },
  {
    "compound": "Cc1ncsc1-c1ccc([C@H](C)NC(=O)[C@@H]2C[C@@H](O)CN2C(=O)[C@@H](NC(=O)OC(C)(C)C)[C@@H](C)OCCCN(C)CCc2ccc(C(=O)N[C@H]3C(C)(C)[C@H](Oc4ccc(C#N)c(Cl)c4)C3(C)C)cc2)cc1",
    "DC50": "> 0.501 µM"
  },
  {
    "compound": "Cc1ncsc1-c1ccc([C@H](C)NC(=O)[C@@H]2C[C@@H](O)CN2C(=O)[C@@H](NC(=O)CCCCN2CCN(c3ccc(C(=O)N[C@H]4C(C)(C)[C@H](Oc5ccc(C#N)c(Cl)c5)C4(C)C)cn3)CC2)C(C)(C)C)cc1",
    "DC50": "> 0.501 µM"
  },
  {
    "compound": "Cc1ncsc1-c1ccc(CNC(=O)[C@@H]2C[C@@H](O)CN2C(=O)[C@@H](C(C)C)N2Cc3ccc(N4CCN(CCCc5ccc(C(=O)N[C@H]6C(C)(C)[C@H](Oc7ccc(C#N)c(C(F)(F)F)c7)C6(C)C)cc5)CC4)cc3C2=O)cc1",
    "DC50": "> 0.501 µM"
  }
]
